Some molecules, each annotated with its measured EC90.
System: Human betaherpesvirus 5
test protocol: Antiviral activity against HCMV AD169 infected in human HFF cells assessed as reduction in virus-induced cytopathic effect incubated for 14 days by cell-titer glo assay
Type: functional, cell-based
assay conditions: Human betaherpesvirus 5, AD169, HFF, 336 h; time 14 day

Some solved cases for reference:
CCN(CC)CC.N#CC(CO)(Cn1ccc(N)nc1=O)OCP(=O)(O)O (stereo unspecified)    > 150 µM
CCN(CC)CC.Cc1cn(CC(C#N)(CO)OCP(=O)(O)O)c(=O)[nH]c1=O (stereo unspecified)    > 150 µM
CCN(CC)CC.N#CC(CO)(Cn1cnc2c(N)ncnc21)OCP(=O)(O)O (stereo unspecified)    > 150 µM
Nc1nc2c(ncn2COC(CO)CO)c(=O)[nH]1    74.2 µM
CCN(CC)CC.N#CC(CO)(Cn1cnc2c(=O)[nH]c(N)nc21)OCP(=O)(O)O (stereo unspecified)    > 30 µM

Checklist item: EC90 tested on Human betaherpesvirus 5, entry CCN(CC)CC.N#CC(CO)(Cn1ccc(=O)[nH]c1=O)OCP(=O)(O)O (stereo unspecified) , value? > 150 µM

###

test protocol: Selectivity index, ratio of CC50 of human HFF cells to EC50 of antiviral activity against VZV
Format: toxicity
assay conditions: read-out: Ratio CC50/EC50
Some compounds, each annotated with its measured selectivity ratio.
Keep the answer to the number alone.

Some solved cases for reference:
CCN(CC)CC.N#CC(CO)(Cn1ccc(N)nc1=O)OCP(=O)(O)O (stereo not given)    1
CCN(CC)CC.N#CC(CO)(Cn1cnc2c(=O)[nH]c(N)nc21)OCP(=O)(O)O (stereo not given)    47
CCN(CC)CC.N#CC(CO)(Cn1ccc(=O)[nH]c1=O)OCP(=O)(O)O (stereo not given)    1
CCN(CC)CC.Cc1cn(CC(C#N)(CO)OCP(=O)(O)O)c(=O)[nH]c1=O (stereo not given)    1

Next item in the queue.
Tell me the measured selectivity ratio of CCN(CC)CC.N#CC(CO)(Cn1cnc2c(N)ncnc21)OCP(=O)(O)O (stereo not given) , please. 1

###

test protocol: Selectivity index, ratio of CC50 for human HFF cells to EC50 for antiviral activity against HCMV AD169
measure name: Ratio CC50/EC50
Keep the answer to the number alone.

CCN(CC)CC.N#CC(CO)(Cn1ccc(N)nc1=O)OCP(=O)(O)O (stereo not given)    1
CCN(CC)CC.N#CC(CO)(Cn1ccc(=O)[nH]c1=O)OCP(=O)(O)O (stereo not given)    1

Tell me the measured Ratio CC50/EC50 of CCN(CC)CC.N#CC(CO)(Cn1cnc2c(=O)[nH]c(N)nc21)OCP(=O)(O)O (stereo not given) , please. 50

Tell me the measured Ratio CC50/EC50 of CCN(CC)CC.Cc1cn(CC(C#N)(CO)OCP(=O)(O)O)c(=O)[nH]c1=O (stereo not given) , please. 1

###

test protocol: Selectivity index, ratio of CC50 of human HepG2.2.2.15 cells to EC50 of antiviral activity against HBV infected in human HepG2.2.2.15 cells
Assay type: toxicity, cell-based
assay conditions: read-out: Ratio CC50/EC50
measure name: selectivity ratio
Keep the answer to the number alone.

CCN(CC)CC.N#CC(CO)(Cn1cnc2c(=O)[nH]c(N)nc21)OCP(=O)(O)O (centres undefined)    1
CCN(CC)CC.N#CC(CO)(Cn1ccc(N)nc1=O)OCP(=O)(O)O (centres undefined)    1

Next item in the queue.
Tell me the measured selectivity ratio of CCN(CC)CC.N#CC(CO)(Cn1ccc(=O)[nH]c1=O)OCP(=O)(O)O (centres undefined) , please. 1
